Assay: chemical genetic growth profiling, strain panel (AID 1159580);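 further: tested at 20 µM; growth read once vehicle control cultures reached saturation at 30 °C; 1 = growth at the plate median or of vehicle wells; lower values mean less growth of the strain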
Settings: S. cerevisiae deletion strains, growth OD, locus YLR320W, strain mms22, stronger effect = lower value
About 2,000 (36%) of roughly 5,500 compounds were called active. Another 18% or so got no clear call; they are omitted. This is one part of the list.

| compound | normalized growth |
| --- | --- |
| C[C@@H]([C@H](O)c1ccccc1)N(C)C | 1.02 |
| CC(=O)OC(C)C[N+](C)(C)C (stereo unspecified) | 0.999 |
| CC1(C)C2CC(=O)[C@]3(C)C(CC[C@@]4(C)[C@H](c5ccoc5)OC(=O)C5OC543)[C@@]2(C)[C@@H](O)C[C@H]1O (stereo partly specified) | 1 |
| C[C@@H]1O[C@@H](OC[C@H]2OC(Oc3c(-c4ccc(OCCO)c(OCCO)c4)oc4cc(OCCO)cc(O)c4c3=O)[C@H](O)[C@@H](O)[C@@H]2O)[C@H](O)[C@H](O)[C@H]1O (stereo partly specified) | 1.01 |
| O=C(Cc1cccs1)NC1C(=O)N2C(C(=O)[O-])=C(C[n+]3ccccc3)CSC12 (stereo unspecified) | 0.979 |
| CC(CC(C(N)=O)(c1ccccc1)c1ccccc1)N(C)C (stereo unspecified) | 0.992 |
| CC1(C)C(=O)C=C[C@@]2(C)C1CC(=O)[C@]1(C)C2CC[C@@]2(C)[C@H](c3ccoc3)OC(=O)[C@H]3O[C@]321 (stereo partly specified) | 1.02 |
| NS(=O)(=O)c1cc(C2(O)NC(=O)c3ccccc32)ccc1Cl (stereo unspecified) | 0.976 |
| OC1CC2CCCC(C1)N2Cc1ccccc1 (stereo unspecified) | 0.99 |
| CNC(C)C(O)c1ccccc1 (stereo unspecified) | 1.02 |
| CC(C)[N+](C)(CCC(C(N)=O)(c1ccccc1)c1ccccc1)C(C)C | 0.971 |
| C[C@H]1O[C@H](OC2[C@@H](O)[C@@H](O)C(O)[C@H](O)[C@H]2O)[C@@H](N)C[C@@H]1N=C(N)C(=O)O (stereo partly specified) | 0.967 |
| COC(=O)c1c(C)cc(O)cc1O | 1.01 |
| CC1(C)C(=O)C=C[C@@]2(C)C1C[C@@H](O)[C@]1(C)C2CC[C@@]2(C)[C@H](c3ccoc3)OC(=O)[C@H]3O[C@]321 (stereo partly specified) | 1.01 |
| COc1ccc(-c2cc(=O)c3c(O)cc(O[C@H]4O[C@H](CO[C@@H]5O[C@@H](C)[C@H](O)[C@@H](O)[C@H]5O)[C@@H](O)[C@H](O)[C@H]4O)cc3o2)cc1 | 1.03 |
| Cc1ccccc1OCC(O)CO (stereo unspecified) | 0.964 |

----------
Measured normalized growth values are reported for all entries that follow.
Test: chemical genetic growth profiling, strain panel (AID 1159580)
Details: S. cerevisiae deletion strains, growth OD, locus YGL173C, strain kem1, stronger effect = lower value
In all, about 5,500 compounds went through this assay and about 2,000 (36%) were called active. Inconclusive results (about 18%) are left out. The list shows a part of the results.
assay-readout: normalized growth

| compound | reported |
| --- | --- |
| CCc1cc(C(N)=S)ccn1 | 0.995 |
| CCN[C@@H]1C[C@H](N)[C@@H](O[C@H]2OC(CN)=CC[C@H]2N)[C@H](O)[C@H]1OC1OC[C@](C)(O)[C@H](NC)[C@H]1O (some centres not stated) | 1 |
| O=c1cc(-c2ccc(O)cc2)oc2cc(O[C@@H]3O[C@H](CO)[C@@H](O)[C@H](O)[C@H]3O)cc(O)c12 | 1.03 |
| CCOC(=O)c1c(C)cc(O)cc1O | 0.928 |
| O=C1C=C2C(=CCOC2O)O1 (configuration not stated) | 0.707 |
| CC(C)c1c(O)ccc2c1CCC1[C@@](C)(C=O)CCC[C@]21C (some centres not stated) | 1.01 |
| OCC(O)C(O)C(O)C(O)C(O)CO (configuration not stated) | 1 |
| CC(=O)Oc1ccc2c(c1C(C)C)CCC1C(C)(C)CCC[C@]21C (some centres not stated) | 1.02 |
| C[C@H]1O[C@H](OC2[C@@H](O)[C@@H](O)C(O)[C@H](O)[C@H]2O)[C@@H](N)C[C@@H]1N=C(N)C(=O)O (some centres not stated) | 0.994 |
| CC/C(=C(/CC)c1ccc(O)cc1)c1ccc(O)cc1 | 0.959 |
| COC(=O)[C@@]1(C)CCC[C@]2(C)c3ccc(O)c(C(C)C)c3CCC12 (some centres not stated) | 0.832 |
| NC(=NCCC[C@H](N)C(=O)O)N[N+](=O)[O-] | 1.02 |
| N#Cc1nn(-c2c(Cl)cc(C(F)(F)F)cc2Cl)c(N)c1S(=O)C(F)(F)F (configuration not stated) | 0.979 |
| CCCCC1C(=O)N(c2ccccc2)N(c2ccc(O)cc2)C1=O (configuration not stated) | 0.983 |
| COC1=CC(=O)C(C(=O)c2ccccc2)=CC1=O | 1 |
| CCCCCc1c2c(cc(O)c1C(=O)O)OC(=O)c1c(cc(OC)cc1C(=O)CCCC)O2 | 0.991 |
| CCN(Cc1ccncc1)C(=O)C(CO)c1ccccc1 (configuration not stated) | 1.04 |
| COc1ccccc1/C=C\C(=O)O | 0.998 |
| C[C@]12CCC3c4ccc(OS(=O)(=O)O)cc4CCC3C1CC[C@H]2O (some centres not stated) | 0.999 |
| O=c1c(O)c(-c2ccc(O)cc2O)oc2cc(O)cc(O)c12 | 0.947 |
| O=C(O[C@@H]1Cc2c(O)cc(O)cc2O[C@@H]1c1cc(O)c(=O)c2c(O)c(O)cc([C@H]3Oc4cc(O)cc(O)c4C[C@H]3OC(=O)c3cc(O)c(O)c(O)c3)c2c1)c1cc(O)c(O)c(O)c1 | 0.181 |
| CC(C)[N+](C)(CCC(C(N)=O)(c1ccccc1)c1ccccc1)C(C)C | 0.998 |

----------
Test: chemical genetic growth profiling, strain panel (AID 1159580);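 further: tested at 20 µM; growth read once vehicle control cultures reached saturation at 30 °C; 1 = growth at the plate median or of vehicle wells; lower values mean less growth of the strain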
Details: S. cerevisiae deletion strains, growth OD, locus YDR318W, strain mcm21, stronger effect = lower value
Hit rate of the full screen: of about 5,500 compounds, about 2,000 (36%) were called active. Inconclusive results (about 18%) are left out. This is one part of the list.
Lab note - cut at 1 for normalized growth: met if strictly below, not met if not.

| compound | assigned-category |
| --- | --- |
| CC(CC(O)C1OC1(C)C)[C@@H]1CCC2(C)C3=CCC4C(C)(C)C(=O)CCC4(C)C3CC[C@@]12C (stereo partly drawn) | not met |
| COc1cccc2c(C)cc(=O)[nH]c12 | met |
| CCC(c1ccc(O)cc1)C(CC)c1ccc(O)cc1 (stereo not drawn) | met |
| COC(=O)[C@@]1(C)CCC[C@]2(C)c3ccc(O)c(C(C)C)c3CCC12 (stereo partly drawn) | met |
| CCOC(=O)c1c(C)cc(OC)cc1O | met |

----------
Measured normalized growth values are reported for all entries that follow.
Test: chemical genetic growth profiling, strain panel (AID 1159580);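 further: tested at 20 µM; growth read once vehicle control cultures reached saturation at 30 °C; 1 = growth at the plate median or of vehicle wells; lower values mean less growth of the strain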
Settings: S. cerevisiae deletion strains, growth OD, locus YGL253W, strain hxk2, stronger effect = lower value
The campaign covered roughly 5,500 compounds. About 2,000 (36%) were called active. Roughly 18% stayed inconclusive and do not appear here. The list shows a part of the results.

| compound | normalized growth |
| --- | --- |
| C[C@H]1O[C@H](OC2[C@@H](O)[C@@H](O)C(O)[C@H](O)[C@H]2O)[C@@H](N)C[C@@H]1N=C(N)C(=O)O (stereo partly specified) | 0.994 |
| CCCC(C)(COC(N)=O)COC(=O)NC(C)C (stereo unspecified) | 0.978 |
| CC(=O)OC(C)C[N+](C)(C)C (stereo unspecified) | 1 |
| Cc1[nH]ccc2c1[nH]c1cc(=O)ccc12 | 1 |
| CC1(C)O[C@H]2CC(=O)OC[C@]23[C@H]2CC[C@@]4(C)[C@H](c5ccoc5)OC(=O)[C@H]5O[C@]54[C@]2(C)C(=O)C[C@@H]13 | 1.01 |
| CC1(C)C2CC(=O)[C@]3(C)C(CC[C@@]4(C)[C@H](c5ccoc5)OC(=O)C5OC543)[C@@]2(C)[C@@H](O)C[C@H]1O (stereo partly specified) | 1 |
| NC(=O)CN1CCCC1=O | 1 |
| C=CC1C2=CCOC(=O)C2=COC1OC1OC(CO)C(O)C(O)C1O (stereo unspecified) | 1.03 |
| CC(=O)Oc1ccc2c(c1C(C)C)CCC1C(C)(C)CCC[C@]21C (stereo partly specified) | 1.03 |
| CC(C)c1c(O)ccc2c1CCC1[C@@](C)(CO)CCC[C@]21C (stereo partly specified) | 1.01 |
| Oc1ccc2c(c1)OCC1(O)Cc3cc(O)c(O)cc3C21 (stereo unspecified) | 1.02 |

----------
Assay: chemical genetic growth profiling, strain panel (AID 1159580);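 further: tested at 20 µM; growth read once vehicle control cultures reached saturation at 30 °C; 1 = growth at the plate median or of vehicle wells; lower values mean less growth of the strain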
Details: S. cerevisiae deletion strains, growth OD, locus YJL166W, strain qcr8, stronger effect = lower value
The whole screen tested about 5,500 compounds, of which about 2,000 (36%) were called active. Roughly 18% stayed inconclusive and do not appear here. Some of the results follow.
Measured normalized growth values are reported for all entries that follow.

| compound | normalized growth |
| --- | --- |
| CC(CC(C(N)=O)(c1ccccc1)c1ccccc1)N(C)C (centres undefined) | 0.987 |
| CCCCOc1cc(C(=O)NCCN(CC)CC)c2ccccc2n1 | 0.937 |
| C=C[C@H]1CN2CC[C@H]1C[C@@H]2[C@@H](OC(=O)OCC)c1ccnc2ccc(OC)cc12 | 1 |
| COc1ccc(Cl)cc1C(=O)NCCc1ccc(S(=O)(=O)NC(=O)NC2CCCCC2)cc1 | 1.01 |
| C[N+](C)(C)CC(O)CC(=O)O (centres undefined) | 1.02 |
| CC(=O)OC(C)C[N+](C)(C)C (centres undefined) | 0.976 |
| CC(=O)[C@@]1(O)CCC2C3C[C@H](C)C4=CC(=O)C=CC4(C)[C@@]3(F)[C@@H](O)C[C@@]21C (some centres undefined) | 0.979 |
| O=C1[O][Bi][O]c2ccccc21 | 0.937 |
| C[C@@H]1CC[C@@]2(NC1)O[C@H]1C[C@H]3C4CC=C5C[C@@H](O)CC[C@]5(C)C4CC[C@]3(C)C1[C@@H]2C (some centres undefined) | 0.0704 |
| O=c1ccc2cc(OC3OC(CO)C(O)C(O)C3O)c(O)cc2o1 (centres undefined) | 1 |
| O=C(Cc1cccs1)NC1C(=O)N2C(C(=O)[O-])=C(C[n+]3ccccc3)CSC12 (centres undefined) | 0.979 |
| OCC(O)C(O)C(O)C(O)C(O)CO (centres undefined) | 0.996 |
| C=C1CCC2(OC1)OC1CC3C4CC=C5CC(O)CC(O)C5(C)C4CCC3(C)C1C2C (centres undefined) | 0.944 |
| CO[C@@]1(NC(=O)C(C(=O)O)c2ccc(O)cc2)C(=O)N2C(C(=O)O)=C(CSc3nnnn3C)CO[C@@H]21 (some centres undefined) | 0.951 |
